Form field: growth inhibition (one value per entry).
- TEST_DESCRIPTION: NCI Yeast Anticancer Drug Screen. Data for the mlh1 rad18 strain (AID 175)
- STATED_CONDITIONS: S. cerevisiae mlh1 rad18 strain growth inhibition; at 5.0 µM (retest, dose inferred, filed as 0.5); hits give high values
- Protocol: Growth inhibition of yeast strains with defined genetic alterations is measured as a screen for potential anti-cancer activity. Selected strains with alterations in DNA damage repair or cell cycle control were exposed to compounds and growth inhibition was measured relative to vehicle treated controls. The strain used in this assay is mlh1 rad18
This is part of a sample that, as a whole, favours compounds with a hit. Of some 79,000 tested, about 15% had one in any assay.

[
  {
    "COMPOUND": "CC(=O)NCCN(C)C",
    "growth inhibition / %": 4
  },
  {
    "COMPOUND": "Nc1ccc2c(c1)S(=O)(=O)c1cc(O)ccc1O2",
    "growth inhibition / %": 8
  },
  {
    "COMPOUND": "CCCC/C=C\\CCCCCCCCCC1=C(O)C(=O)C=C(OC)C1=O",
    "growth inhibition / %": 71
  },
  {
    "COMPOUND": "CC1(C)CC[C@]2(C(=O)O)[C@H](O)C[C@]3(C)C(=CC[C@@H]4[C@@]5(C)CC[C@H](OC6OCC(O)C(O)C6OC6OCC(O)C(O)C6OC6OCC(O)C(O)C6O)C(C)(C)[C@@H]5CC[C@]43C)[C@@H]2C1 (some centres not stated)",
    "growth inhibition / %": 5
  },
  {
    "COMPOUND": "Cc1ccc(-c2c(N)[n+]([O-])c3ccccc3[n+]2[O-])cc1",
    "growth inhibition / %": 81
  },
  {
    "COMPOUND": "O=C1CC(=Nc2ccc([N+](=O)[O-])cc2)NN1c1c(Cl)cc(Cl)cc1Cl",
    "growth inhibition / %": -65
  },
  {
    "COMPOUND": "OB1c2ccccc2CCc2ccccc21",
    "growth inhibition / %": -2
  },
  {
    "COMPOUND": "O=C(CCN1CCCCC1)N1CCc2c([nH]c3ccccc23)C1c1cccnc1 (configuration not stated)",
    "growth inhibition / %": 2
  },
  {
    "COMPOUND": "CC(C)C1=C2CCC3(C)C(CCC4C5C6OCC5(CCC6(C)C)CCC43C)C2(C)CC1 (configuration not stated)",
    "growth inhibition / %": 17
  },
  {
    "COMPOUND": "OC(c1ccccc1)(c1ccccc1)C(F)(Cl)Cl",
    "growth inhibition / %": -2
  },
  {
    "COMPOUND": "COc1nc(NC2OC(CO)C(O)C(O)C2O)c(Cl)c(=O)[nH]1 (configuration not stated)",
    "growth inhibition / %": 4
  },
  {
    "COMPOUND": "CC1=C(c2ccccc2)C(=O)OC1=O",
    "growth inhibition / %": 13
  }
]

Cited source for all entries: PubChem BioAssay (NCI)
